Parameter Loaded RNA: see the listing below.
assay: Encapsulation efficiency / loaded nucleic acid by SyBr Gold fluorescence after Triton X-100 disruption; assay type: physicochemical; details: mRNA(GFP) LNPs, total lipid 3.75 mM, N/P 6
Output spec: scalar in ng/µL, unitless text.

Recorded results for 2 compounds are shown here.
CCCCC/C=C\C/C=C\CCCCCCCCOC(=O)CCC(NC(=O)CN(C)C)C(=O)OCCCCCCCC/C=C\C/C=C\CCCCC (stereo not shown)
83.6
CCCCC/C=C\C/C=C\CCCCCCCCNC(=O)CCC(NC(=O)CCCN(C)C)C(=O)NCCCCCCCC/C=C\C/C=C\CCCCC (stereo not shown)
91

Looking up CCCCCCC/C=C\CCCCCCCCNC(=O)CCC(NC(=O)CCCN(C)C)C(=O)NCCCCCCCC/C=C\CCCCCCCC (stereo not shown) , I found its Loaded RNA recorded as 98.8

The compound CCCCCCCC/C=C\CCCCCCCCNC(=O)CCC(NC(=O)CN(C)C)C(=O)NCCCCCCCC/C=C\CCCCCCCC (stereo not shown) showed Loaded RNA equal to 94.6

Reported Loaded RNA ( CCCCCCC/C=C\CCCCCCCCNC(=O)CCC(NC(=O)OCCN(CC)CC)C(=O)NCCCCCCCC/C=C\CCCCCCCC (stereo not shown) ) = 89

# Loaded RNA of CCCCCCCC/C=C\CCCCCCCC(=O)NCCCC(NC(=O)CCCCCCC/C=C\CCCCCCCC)C(=O)NCCCn1ccnc1 (stereo not shown) = 78.3

Notebook: CCCCCCCC/C=C\CCCCCCCCNC(=O)CCC(NC(=O)CCC(=O)NCCSSCCNC(=O)CN(C)C)C(=O)NCCCCCCCC/C=C\CCCCCCCC (stereo not shown) , Loaded RNA read as 84
